- System: HCT116 MTAP-deleted cells
- Assay Method Text: Cell viability assay (CellTiter-Glo, 7 days), HCT116 MTAP-deleted
- Condition: Homo sapiens, HCT-116, 168 h
Reported CC50 is given for each of the following molecules.

| Molecule | System Under Test | CC50 |
| --- | --- | --- |
| COCCN(C)N(Cc1ccc(C(F)(F)F)cn1)C(=O)c1ccc2nc(N)c3cnn(C)c3c2c1 [Example 179] | HCT116 MTAP-deleted cells | < 100 nM |
| CN1CCN(N(Cc2ccc(C(F)(F)F)cn2)C(=O)c2ccc3nc(N)c4cnn(C)c4c3c2)C(=O)C1 [Example 382] | HCT116 MTAP-deleted cells | < 100 nM |
| CC(=O)N(C)N(Cc1ccc(-c2cnsc2)cc1F)C(=O)c1ccc2nc(N)c3cnn(C)c3c2c1 [Example 233] | HCT116 MTAP-deleted cells | < 100 nM |
| CN(C(=O)C1CC1)N(Cc1cnc(C(F)(F)F)c(F)c1)C(=O)c1ccc2nc(N)c3cnn(C)c3c2c1 [Example 279] | HCT116 MTAP-deleted cells | 100 to 1000 nM |
